test system: CCRF-CEM leukemia
Each entry below carries its reported GI50.

Take a look at these entries with their results.
# COMPOUND, SYSTEM_UNDER_TEST, VAL
rows = [
    ("O=Cc1c[nH]c2ccc(-c3csc4ccccc34)cc12", "CCRF-CEM leukemia", "2.64 µM"),
    ("Cc1ccn2c(-c3csc(Nc4cccc(O)c4)n3)c(C)nc2c1", "CCRF-CEM leukemia", "0.48 µM"),
    ("O=c1c(-c2ccc3c(c2)OCO3)coc2c(CO)c(O)ccc12", "CCRF-CEM leukemia", "3.44 µM"),
]

GI50 in this record for NC(Cc1ccc(O)cc1)C(=O)N/N=C/c1ccc(N(CCCl)CCCl)cc1 (stereo unspecified) : 0.231 µM

GI50 in this record for `O=C1c2ccccc2-c2c1c1c(O)cccc1n2CCCc1ccccc1` : 24.1 µM

GI50 in this record for `C=C1C(=O)O[C@H]2[C@H]1CC/C(COC(=O)c1cccc3ccccc13)=C\CC[C@@]1(C)O[C@@H]21` : 0.327 µM
